target: OX2R (Homo sapiens)
Sequence (O43614 whole entry): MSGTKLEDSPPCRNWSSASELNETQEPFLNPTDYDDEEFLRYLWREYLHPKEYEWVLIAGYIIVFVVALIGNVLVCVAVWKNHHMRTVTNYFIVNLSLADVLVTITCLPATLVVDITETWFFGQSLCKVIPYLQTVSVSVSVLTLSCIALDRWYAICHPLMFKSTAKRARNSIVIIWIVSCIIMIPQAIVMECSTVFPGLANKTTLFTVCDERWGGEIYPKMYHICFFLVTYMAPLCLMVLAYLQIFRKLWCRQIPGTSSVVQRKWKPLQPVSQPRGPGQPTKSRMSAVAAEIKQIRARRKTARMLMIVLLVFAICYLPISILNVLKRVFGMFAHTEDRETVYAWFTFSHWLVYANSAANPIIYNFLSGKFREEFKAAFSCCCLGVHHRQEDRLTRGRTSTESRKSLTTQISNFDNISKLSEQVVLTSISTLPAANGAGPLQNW
experiment notes: Evaluation of agonist activity against OX2R (CHOOX2R cells, Fura2AM fluorescence, FDSS3000)
condition details: OX2R agonist activity; CHOOX2R cells
Method: Evaluation of Agonist Activity Against OX2R NFAT-luciferase gene and OX2R gene were each constitutively expressed in CHO cell, which is a cell line derived from Chinese hamster ovary to establish a cell line (CHOOX2R). […] After washing, HEPES buffer (75 μL) was added, a test compound solution (25 μL) was added, and changes in the fluorescence intensity were measured by FDSS3000 (Hamamatsu Photonics K.K.). […]
observed property: EC50 (nM)

# annotated cases, reported EC50 shown
molecular string	reported
COc1ccccc1C(=O)NCCNc1cccc(NS(=O)(=O)c2cc(-c3cccc(C(=O)N(C)C)c3)ccc2OC)c1	50
COc1ccc(-c2cccc(C(=O)N(C)C)c2)cc1S(=O)(=O)Nc1cccc(NCCNC(=O)c2cccc(F)c2)c1	783

P. CNC(=O)c1cccc(-c2ccc(OC)c(S(=O)(=O)Nc3cccc(NCCNC(=O)c4ccccc4OC)c3)c2)c1
Q. COc1ccccc1C(=O)NCCNc1cccc(NS(=O)(=O)c2cc(-c3cccc(C(=O)N4CCC4)c3)ccc2OC)c1
IN: For P and Q , which recorded EC50 is lower? Respond using the label that marks the chosen record.
OUT: P
(P: 182 nM, Q: 365 nM)

Attribution: patent US9815787B2
